test system: LXRb:RXRa (NR concentration 270 nM, RXRa partner concentration 90 nM); assay: PBM binding z-score (relative to random genomic background probes); higher = stronger binding; sequences stand for … in GC…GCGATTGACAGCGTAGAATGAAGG
measurement type: PBM binding z-score
The reply should be a number, written without any unit.

Identify the reported PBM binding z-score for the following entry. `ATCTCTACGTAAAAGTTCAGTGAATCCCGAGGAT` 0.881

Identify the reported PBM binding z-score for the following entry. `GTTCGGAGGACAAGGTCAGAGCTTTGTCCGTAGA` 0.904

Identify the reported PBM binding z-score for the following entry. `CCGACTGGGGCAGAAAGGTTACCATCCCATCCGG` 0.878
